These entries and their values trace back to patent US12448363B2.

Reported kinact/KI values for the following compounds.
tested.target: BTK (Homo sapiens, UniProt Q06187)
Sequence (Q06187 whole entry): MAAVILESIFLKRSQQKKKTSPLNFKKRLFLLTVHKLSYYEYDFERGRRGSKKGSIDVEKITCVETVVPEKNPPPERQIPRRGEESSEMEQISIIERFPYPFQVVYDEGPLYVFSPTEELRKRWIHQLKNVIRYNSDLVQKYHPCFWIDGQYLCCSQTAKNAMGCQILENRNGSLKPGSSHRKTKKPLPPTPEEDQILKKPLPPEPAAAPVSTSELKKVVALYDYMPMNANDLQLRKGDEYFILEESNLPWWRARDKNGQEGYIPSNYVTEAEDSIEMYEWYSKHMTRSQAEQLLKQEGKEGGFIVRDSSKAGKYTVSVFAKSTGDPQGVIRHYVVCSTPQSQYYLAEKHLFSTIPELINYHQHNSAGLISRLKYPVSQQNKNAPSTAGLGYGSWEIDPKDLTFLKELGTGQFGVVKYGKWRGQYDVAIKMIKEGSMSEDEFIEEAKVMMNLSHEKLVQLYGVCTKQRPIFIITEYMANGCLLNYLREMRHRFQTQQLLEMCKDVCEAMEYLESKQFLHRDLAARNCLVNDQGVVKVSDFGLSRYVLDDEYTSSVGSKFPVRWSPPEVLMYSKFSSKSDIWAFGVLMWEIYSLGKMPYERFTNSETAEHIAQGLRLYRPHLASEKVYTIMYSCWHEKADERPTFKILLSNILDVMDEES
measurement.notes: Assay to determine BTK inactivation rate in human whole blood (ELISA of unoccupied BTK)
Type: cell-based
Parameters: Human whole blood is obtained from StemExpress; tissue StemExpress; host or cells: human whole blood
reported.conditions: 37° C., 5, 15, 30, 60 minutes, read-out: BTK hWB Kinact/Ki

Below: 2 compounds and their reported kinact/KI.
compound: C=CC(=O)N1CCC[C@@H](c2c(F)cc(C(N)=O)c3[nH]c(C)c(Cl)c23)C1
tested.target: BTK (Homo sapiens, UniProt Q06187)
reported.metric: kinact/KI
reading: > 16700 M⁻¹ s⁻¹

compound: C=CC(=O)N1CCC2CCN(c3c(F)cc(C(N)=O)c4[nH]c(C)c(Cl)c34)CC21 (racemic) [Compound 29]
tested.target: BTK (Homo sapiens, UniProt Q06187)
reported.metric: kinact/KI
reading: 1670 to 16700 M⁻¹ s⁻¹

API: the following record is the query input.
Data request: May I ask what kinact/KI has been recorded for C=CC(=O)N1CCC2CCN(c3c(F)cc(C(N)=O)c4[nH]c(C)c(C)c34)CC21 (stereo not drawn) ?
Data returned: < 1670 M⁻¹ s⁻¹
